I'd appreciate it if you could supply normalized growth values for the items below.
Assay: chemical genetic growth profiling, strain panel (AID 1159580);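 further: tested at 20 µM; growth read once vehicle control cultures reached saturation at 30 °C; 1 = growth at the plate median or of vehicle wells; lower values mean less growth of the strain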
Settings: S. cerevisiae deletion strains, growth OD, locus YGR092W, strain DBF2, active compounds read low
In all, about 5,500 compounds went through this assay and about 2,000 (36%) were called active. Roughly 18% stayed inconclusive and do not appear here. The list shows a part of the results.
Answers are plain numbers.

Examples from the recorded data:
{"columns": ["compound", "normalized growth"],
 "data": [
  ["N#Cc1ccc2[nH]cc(CCN(Cc3ccccc3)Cc3ccccc3)c2c1", 0.943],
  ["CC1(C)C=Cc2cc(/C(N)=N\\OC(=O)Nc3cccc(C(F)(F)F)c3)ccc2O1", 0.854],
  ["O=c1cc(CSc2ccc(Cl)cc2)c2ccc(O)cc2o1", 0.63],
  ["CN1/C(=C/C=C/c2ccc3ccccc3[n+]2C)C=Cc2ccccc21", 0.148],
  ["CCCCCCCCCCCCSc1ncn[nH]1", 0.595],
  ["COC(=O)/C=C1/OC(c2ccc(OC)cc2)=CC1=O", 0.154]
]}

Give me normalized growth for each of these compounds, listed below.
1. O=C(Nc1ccccc1C(=O)O)OCC1c2ccccc2-c2ccccc21
2. O=C1/C(=C/c2c[nH]c3ccccc23)CSc2ccccc21
3. O=C(O/N=C1/CCCc2[nH]c3ccccc3c21)c1ccc(Cl)cc1Cl
4. Cc1cc(-c2onc(C)c2C(=O)Sc2ccccc2)no1
5. O=C(Nc1ccc(SC(F)(F)F)cc1)Nc1ccc(Oc2cccc(C(F)(F)F)c2)nc1
6. N#C/C(N=Cc1cc(Cl)cc(Cl)c1O)=C(\C#N)N=Cc1cc(Cl)cc(Cl)c1O

Result:
[0.683, 0.945, 0.982, 0.705, 0.995, 0.129]

Give me normalized growth for each of these compounds, listed below.
1. O=C1Nc2ccccc2/C1=C\c1c[nH]c2ccccc12
2. O=C(Nc1cc2ccccc2s1)N1CCN(Cc2c(F)cccc2Cl)CC1
3. OC(COCc1ccccc1)Cn1c2ccccc2c2ccccc21 (configuration not stated)
4. Cc1ccc(Sc2ncccc2NS(=O)(=O)c2ccc(Cl)cc2)cc1
5. FC(F)(F)Sc1ccc(OCc2n[nH]c(=S)n2-c2ccccc2)cc1
6. Cc1cc(Br)c(O)c(/C=N\NC(=S)NC(C)(C)C)c1
7. O=c1[nH][nH]c(=O)n1CCCc1cc2cccc3ccc4cccc1c4c32

Result:
1: 0.109; 2: 0.972; 3: 0.838; 4: 0.826; 5: 0.874; 6: 0.823; 7: 0.9

====

Assay: chemical genetic growth profiling, strain panel (AID 1159580);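 further: tested at 20 µM; growth read once vehicle control cultures reached saturation at 30 °C; 1 = growth at the plate median or of vehicle wells; lower values mean less growth of the strain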
Conditions: S. cerevisiae deletion strains, growth OD, locus YML070W, strain DAK1, active compounds read low
Hit rate of the full screen: of about 5,500 compounds, about 2,000 (36%) were called active. About 18% were inconclusive and are not listed. The list shows a part of the results.
Could you mark each record Satisfied if its normalized growth falls strictly under 0.9, and Not satisfied if it equals or exceeds it?

Would you please look over these solved cases?
{"columns": ["compound", "categoryLabel"],
 "data": [
  ["COc1ccccc1N1CCN(C(=O)C(C)c2ccc(CC(C)C)cc2)CC1 (stereo unspecified)", "Not satisfied"],
  ["CN(C)/C=C1\\CSc2ccc(Cl)cc2C1=O", "Satisfied"],
  ["O=C(O/N=C1/CCCc2[nH]c3ccccc3c21)C1CCCCC1", "Satisfied"],
  ["O=C(Nc1ccccc1C(=O)O)OCC1c2ccccc2-c2ccccc21", "Satisfied"],
  ["O=c1[nH][nH]c(=O)n1CCCc1cc2cccc3ccc4cccc1c4c32", "Not satisfied"]
]}

Problem: Lab note: normalized growth threshold 0.9. Does this compound come in strictly under it? O=C(NC(=S)NNc1ncc(C(F)(F)F)cc1Cl)c1cccs1
Result: Satisfied

Problem: Lab note: normalized growth threshold 0.9. Does this compound come in strictly under it? Clc1cccc(Cl)c1C1CC(c2ccccc2)=Nc2ccccc2S1 (stereo unspecified)
Result: Not satisfied

Problem: Lab note: normalized growth threshold 0.9. Does this compound come in strictly under it? O=S(=O)(Nc1ccccc1Sc1c(Cl)cncc1Cl)c1ccc(Cl)cc1
Result: Not satisfied

Problem: Lab note: normalized growth threshold 0.9. Does this compound come in strictly under it? CC(C)(C)NC(=S)N/N=C\c1cc(Br)c(O)c(Br)c1
Result: Not satisfied

Problem: Lab note: normalized growth threshold 0.9. Does this compound come in strictly under it? O=C(OCc1ccccc1Br)c1cc([N+](=O)[O-])cc([N+](=O)[O-])c1
Result: Satisfied

====

Test: chemical genetic growth profiling, strain panel (AID 1159580);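 further: tested at 20 µM; growth read once vehicle control cultures reached saturation at 30 °C; 1 = growth at the plate median or of vehicle wells; lower values mean less growth of the strain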
Settings: S. cerevisiae deletion strains, growth OD, locus YOR329C, strain SCD5, active compounds read low
About 2,000 (36%) of roughly 5,500 compounds were called active. Another 18% or so got no clear call; they are omitted. Some of the results follow.
resultType: normalized growth
One number for each entry.

Examples from the recorded data:
{"columns": ["structureSmiles", "normalized growth"],
 "data": [
  ["CCOC(=O)NC(=S)Nc1ccc(C(C)(C)C)cc1NC(=S)NC(=O)OCC", 0.983],
  ["CO/N=C1/CC(C)(C)Cc2c(-c3ccn(C(=O)Nc4cccc(Cl)c4)n3)sc(SC)c21", 0.971],
  ["O=C(NNc1cc(C(F)(F)F)cc(C(F)(F)F)c1)c1cnc2n(c1=O)CCS2", 0.983]
]}

Problem: For the molecule shown here, O=C(Nc1ccc(SC(F)(F)F)cc1)Nc1ccc(Oc2cccc(C(F)(F)F)c2)nc1 , give the reported normalized growth.
Result: 0.984

====

Test: chemical genetic growth profiling, strain panel (AID 1159580);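 further: tested at 20 µM; growth read once vehicle control cultures reached saturation at 30 °C; 1 = growth at the plate median or of vehicle wells; lower values mean less growth of the strain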
Conditions: S. cerevisiae deletion strains, growth OD, locus YCR088W, strain abp1, active compounds read low
The campaign covered roughly 5,500 compounds. About 2,000 (36%) were called active. Another 18% or so got no clear call; they are omitted. The list shows a part of the results.
I'd appreciate it if you could supply normalized growth values for the items below.
Numbers only.

{"columns": ["compound", "measured"],
 "data": [
  ["CSc1nc(NC(C)C)nc(NC(C)C)n1", 0.986],
  ["CN(C)CC[C@H](c1ccc(Cl)cc1)c1ccccn1", 0.989],
  ["COC1C(O)C(O[C@H]2CC[C@]3(C=O)C4C(CC[C@]3(O)C2)[C@@]2(O)CC[C@H](C3=CC(=O)OC3)[C@@]2(C)C[C@H]4OC(C)=O)OC(C)C1OC(C)=O (stereo partly specified)", 1.02],
  ["COC(=O)[C@H]1[C@H]2C[C@H]3c4[nH]c5cc(OC)ccc5c4CCN3C[C@H]2C[C@@H](OC(=O)c2cc(OC)c(OC)c(OC)c2)[C@@H]1OC", 1.01],
  ["CC(C)Nc1nc(Cl)nc(NC(C)C)n1", 0.992]
]}

Give me normalized growth for each of these compounds, listed below.
1. COC1CC(OC2CCC3(C)C(CCC4C3CCC3(C)C(C5=CC(=O)OC5)C(OC(C)=O)CC43O)C2)OC(C)C1O (stereo unspecified)
2. CC1(C)C(=O)CC[C@@]2(C)C1C[C@@H](O)[C@@]1(C)C3=CC(=O)O[C@@H](c4ccoc4)[C@]3(C)CCC21 (stereo partly specified)
3. COC(=O)C[C@H]1C(C)(C)[C@@H](O)[C@@H]2CC3=C4CC(O)O[C@@H](c5ccoc5)[C@]4(C)CCC3[C@@]1(C)C2=O (stereo partly specified)
4. CC1(C)O[C@@H]2CC3C4C[C@H](F)C5=CC(=O)CC[C@]5(C)C4[C@@H](O)C[C@]3(C)[C@]2(C(=O)CO)O1 (stereo partly specified)
5. Oc1ccc2c3c1OC1[C@@H](O)CC[C@@]4(O)[C@@H](C2)N(CC2CCC2)CC[C@]314 (stereo partly specified)

Result:
1: 1.02; 2: 1.02; 3: 1.02; 4: 1.01; 5: 1.01

Give me normalized growth for each of these compounds, listed below.
1. COC(=O)CC1C(C)(C)C(OC(C)=O)[C@@H]2[C@@H](OC(C)=O)[C@]34O[C@@]2(O)[C@]1(C)C3CC[C@]1(C)C4=CC(=O)O[C@H]1c1ccoc1 (stereo partly specified)
2. Cc1cc(N)c2ccccc2[n+]1CCCCCCCCCC[n+]1c(C)cc(N)c2ccccc21
3. NC(=O)c1ccc([N+](=O)[O-])cc1Cl
4. CC1(C)[C@@H]2CC[C@@]1(C)C(=O)C2
5. C[C@@H]1CC[C@@]23CCC4(C)[C@@](C=CC5[C@@]6(C)CCC(=O)C(C)(C)C6CC[C@]54C)(OC2=O)C3[C@H]1C (stereo partly specified)
6. NC[C@H]1O[C@H](OC2[C@@H](N)C[C@@H](N)[C@H](O[C@H]3O[C@H](CO)[C@@H](O)[C@H](N)[C@H]3O)[C@H]2O)[C@H](O)[C@@H](O)[C@@H]1O (stereo partly specified)
7. COc1cc(O)c2c(=O)cc(-c3ccc(OC)c(-c4c(O)cc(O)c5c(=O)cc(-c6ccc(O)cc6)oc45)c3)oc2c1
8. COc1cc2c(cc1OC)-c1c(oc3cc(O)cc(O)c3c1=O)CO2

Result:
1.01
0.0654
0.994
1.01
0.992
0.994
1.03
1.02

Give me normalized growth for each of these compounds, listed below.
1. Cc1c(OCC(F)(F)F)ccnc1CS(=O)c1nc2ccccc2[nH]1 (stereo unspecified)
2. CC(=O)N1CCN(c2ccc(OCC3CO[C@](Cn4ccnc4)(c4ccc(Cl)cc4Cl)O3)cc2)CC1 (stereo partly specified)

Result:
1.01
0.111
